// reported T/C per item
- Test system: P388 leukemia ip, CD2F1 mice, survival T/C
- method notes: NCI In Vivo Anticancer Drug Screen. Data for tumor model P388 Leukemia (intraperitoneal) in CD2F1 (CDF1) mice
- recorded conditions: endpoint: median survival time; dose: 50.0 mg/kg/injection; schedule: Q01DX009 (ip); vehicle: saline; higher = longer survival
Toxic doses and inconclusive results are not listed.

{"columns": ["compound", "T/C"],
 "data": [
  ["COc1ccc(-c2nc(C)nc3c2Cc2c(ccc4ccccc24)O3)cc1", "98 % of control"]
]}

q: Requested read-out: T/C. Entry: CCC[CH2][Sn]([CH2]CCC)([CH2]CCC)[CH2]CCCNCCCN(C)C
a: 97 % of control

q: What T/C value was documented for this compound, CN(C)CCC(=O)/C=C\c1ccccc1 ?
a: 108 % of control

q: Entry CCOP(=O)(Nc1ccccc1OC)OCC : reported T/C = ?
a: 104 % of control

q: Field request: T/C | item: CCOP(=O)(Nc1ccc(C)cc1C)OCC
a: 100 % of control

src = PubChem BioAssay AID330
